- METHOD DESCRIPTION: AUC in Sprague-Dawley rat at 100 mg/kg, po measured after 48 hrs by LC-MS/MS analysis
- Assay type: ADME, organism-based
- CONDITION CONTEXT: in vivo
REPORTED ENDPOINT: AUC at 48 h (ng·h/mL)
Number in ng·h/mL, nothing else.

For record CC1=C(C(=O)NCCc2c[nH]c3ccccc23)C(c2ccc(Cl)c(Cl)c2)C2=C(CC(C)(C)CC2=O)N1 (stereo unspecified) the listed AUC at 48 h is 367

====

- METHOD DESCRIPTION: Cmax in Sprague-Dawley rat at 100 mg/kg, po measured after 48 hrs by LC-MS/MS analysis
- Type: ADME, organism-based
- CONDITION CONTEXT: in vivo
REPORTED ENDPOINT: Cmax
Include the unit after the number when you answer.

For record CC1=C(C(=O)NCCc2c[nH]c3ccccc23)C(c2ccc(Cl)c(Cl)c2)C2=C(CC(C)(C)CC2=O)N1 (stereo unspecified) the listed Cmax is 51.7 ng/mL
